# Method: Oral bioavailability in rat at 10 mg/kg
# Format: ADME, organism-based
# Test conditions: in vivo
Observation type: bioavailability
Don't forget the unit after the value.

# input Would you mind telling me what bioavailability value was observed for O=C(Nc1ccc2[nH]nc(-c3ccncc3)c2c1)[C@@H]1CCN(CC(=O)N2CCN(c3ccc(-c4ncccn4)cc3)CC2)C1 ?
# output 0%

* * *

# Method: Clearance in dog hepatocytes assessed per million cells
# Assay type: ADME, cell-based, Canis lupus familiaris, Hepatocyte
Observation type: CLH (µL/min/1e6 cells)
Return type: number; implicit unit µL/min/1e6 cells.

• CS[C@@]1(C(=O)Nc2ccc3[nH]nc(-c4ccc(F)cc4)c3c2)CCN(CC(=O)N2CC=C(c3ccc(-c4ncccn4)cc3)CC2)C1 = 18

Let's switch to this compound now.
# input Would you mind telling me what CLH value was observed for CO[C@@]1(C(=O)Nc2ccc3[nH]nc(-c4ccc(F)cc4)c3c2)CCN(CC(=O)N2CC=C(c3ccc(-c4ncccn4)cc3)CC2)C1 ?
# output 36

* * *

# Method: MRT in dog at 2 mg/kg, iv or 2 mg/kg dosed via portal vein infusion or 10 mg/kg, po
# Format: ADME, organism-based, Canis lupus familiaris
# Test conditions: in vivo
Observation type: MRT (h)
Return type: number; implicit unit h.

# input Would you mind telling me what MRT value was observed for CS[C@@]1(C(=O)Nc2ccc3[nH]nc(-c4ccc(F)cc4)c3c2)CCN(CC(=O)N2CC=C(c3ccc(-c4ncccn4)cc3)CC2)C1 ?
# output 5.1

* * *

# Method: MRT in rat at 3 mg/kg, iv or 10 mg/kg, po
# Format: ADME, organism-based
# Test conditions: in vivo
Observation type: MRT (h)
Return type: number; implicit unit h.

# input Would you mind telling me what MRT value was observed for CS[C@@]1(C(=O)Nc2ccc3[nH]nc(-c4ccc(F)cc4)c3c2)CCN(CC(=O)N2CC=C(c3ccc(-c4ncccn4)cc3)CC2)C1 ?
# output 2.5

* * *

Each record here notes measured IC50.
# System tested: Cytochrome P450 3A4 (Homo sapiens)
# Method: Inhibition of CYP3A4 (unknown origin) under co-incubation condition
# Assay type: ADME

# count of solved cases: 2
* CO[C@@]1(C(=O)Nc2ccc3[nH]nc(-c4ccc(F)cc4)c3c2)CCN(CC(=O)N2CC=C(c3ccc(-c4ncccn4)cc3)CC2)C1 | 31 µM
* CS[C@@]1(C(=O)Nc2ccc3[nH]nc(-c4ccc(F)cc4)c3c2)CCN(CC(=O)N2CC=C(c3ccc(-c4ncccn4)cc3)CC2)C1 | > 30 µM

Let's switch to this compound now.
# input Would you mind telling me what IC50 value was observed for O=C(Nc1ccc2[nH]nc(-c3ccncc3)c2c1)[C@@H]1CCN(CC(=O)N2CCN(c3ccc(-c4ncccn4)cc3)CC2)C1 ?
# output 7.8 µM

* * *

# Method: Oral bioavailability in rat at or 10 mg/kg
# Type: ADME, organism-based
# Test conditions: in vivo
Each record here notes measured bioavailability.

- CS[C@@]1(C(=O)Nc2ccc3[nH]nc(-c4ccc(F)cc4)c3c2)CCN(CC(=O)N2CC=C(c3ccc(-c4ncccn4)cc3)CC2)C1: 70%

Let's switch to this compound now.
# input Would you mind telling me what bioavailability value was observed for O=C(Nc1ccc2[nH]nc(-c3ccncc3)c2c1)[C@@H]1CCN(CC(=O)N2CCN(c3ccc(-c4ncccn4)cc3)CC2)C1 ?
# output 0%

* * *

# System tested: Mitogen-activated protein kinase 1 (Homo sapiens)
# Method: Inhibition of ERK2 (unknown origin)
Observation type: IC50 (nM)
Return type: number; implicit unit nM.

• CC(=O)N(C[C@@H]1CCN(CC(=O)N2CCN(c3ccc(-c4ncccn4)cc3)CC2)C1)c1ccc2[nH]nc(-c3ccc(F)cc3)c2c1 = 574
• CC(C)O[C@@]1(C(=O)Nc2ccc3[nH]nc(-c4ccc(F)cc4)c3c2)CCN(CC(=O)N2CCN(c3ccc(-c4ncccn4)cc3)CC2)C1 = 90
• O=C(Nc1ccc2[nH]nc(-c3ccc(F)cc3)c2c1)C1CN(CC(=O)N2CC=C(c3ccc(-c4ncccn4)cc3)CC2)CCO1 (centres undefined) = 119
• CN(C)C1(C(=O)Nc2ccc3[nH]nc(-c4ccc(F)cc4)c3c2)CCN(CC(=O)N2CC=C(c3ccc(-c4ncccn4)cc3)CC2)C1 (centres undefined) = 21
• O=C(Nc1ccc2[nH]nc(-c3ccc(F)cc3)c2c1)[C@@H]1CCN(CC(=O)N2CCN(c3ccc(-c4ncccn4)cc3)CC2)C1 = 5.5
• COC[C@@]1(C(=O)Nc2ccc3[nH]nc(-c4ccc(F)cc4)c3c2)CCN(CC(=O)N2CCN(c3ccc(-c4ncccn4)cc3)CC2)C1 = 25

# input Would you mind telling me what IC50 value was observed for CCO[C@@]1(C(=O)Nc2ccc3[nH]nc(-c4ccc(F)cc4)c3c2)CCN(CC(=O)N2CCN(c3ccc(-c4ncccn4)cc3)CC2)C1 ?
# output 9.7

# input Lookup O=C(CN1CC[C@@H](CNc2ccc3[nH]nc(-c4ccc(F)cc4)c3c2)C1)N1CCN(c2ccc(-c3ncccn3)cc2)CC1
# output 960

# input Lookup CS(=O)(=O)[C@@]1(C(=O)Nc2ccc3[nH]nc(-c4ccc(F)cc4)c3c2)CCN(CC(=O)N2CC=C(c3ccc(-c4ncccn4)cc3)CC2)C1
# output 12

# input Lookup CC[C@@]1(C(=O)Nc2ccc3[nH]nc(-c4ccc(F)cc4)c3c2)CCN(CC(=O)N2CC=C(c3ccc(-c4ncccn4)cc3)CC2)C1
# output 115

# input Lookup O=C(Nc1ccc2[nH]nc(-c3ccc(F)cc3)c2c1)C1CN(CC(=O)N2CC=C(c3ccc(-c4ncccn4)cc3)CC2)CCS1 (centres undefined)
# output 1310

# input Lookup CO[C@@]1(C(=O)Nc2ccc3[nH]nc(-c4ccc(F)cc4)c3c2)CCN(CC(=O)N2CCN(c3ccc(-c4ncccn4)cc3)CC2)C1
# output 2.1

# input Lookup O=C(CN1CC[C@@](CO)(C(=O)Nc2ccc3[nH]nc(-c4ccc(F)cc4)c3c2)C1)N1CC=C(c2ccc(-c3ncccn3)cc2)CC1
# output 14

* * *

# Method: Half life in dog at 2 mg/kg, iv or 2 mg/kg dosed via portal vein infusion or 10 mg/kg, po
# Format: ADME, organism-based, Canis lupus familiaris
# Test conditions: in vivo
Observation type: half-life (h)
Return type: number; implicit unit h.

# input Would you mind telling me what half-life value was observed for CS[C@@]1(C(=O)Nc2ccc3[nH]nc(-c4ccc(F)cc4)c3c2)CCN(CC(=O)N2CC=C(c3ccc(-c4ncccn4)cc3)CC2)C1 ?
# output 2

* * *

Each record here notes measured inhibition at […].
# System tested: hERG (KCNH2) (Homo sapiens, UniProt Q12809)
# Sequence (Q12809 whole entry): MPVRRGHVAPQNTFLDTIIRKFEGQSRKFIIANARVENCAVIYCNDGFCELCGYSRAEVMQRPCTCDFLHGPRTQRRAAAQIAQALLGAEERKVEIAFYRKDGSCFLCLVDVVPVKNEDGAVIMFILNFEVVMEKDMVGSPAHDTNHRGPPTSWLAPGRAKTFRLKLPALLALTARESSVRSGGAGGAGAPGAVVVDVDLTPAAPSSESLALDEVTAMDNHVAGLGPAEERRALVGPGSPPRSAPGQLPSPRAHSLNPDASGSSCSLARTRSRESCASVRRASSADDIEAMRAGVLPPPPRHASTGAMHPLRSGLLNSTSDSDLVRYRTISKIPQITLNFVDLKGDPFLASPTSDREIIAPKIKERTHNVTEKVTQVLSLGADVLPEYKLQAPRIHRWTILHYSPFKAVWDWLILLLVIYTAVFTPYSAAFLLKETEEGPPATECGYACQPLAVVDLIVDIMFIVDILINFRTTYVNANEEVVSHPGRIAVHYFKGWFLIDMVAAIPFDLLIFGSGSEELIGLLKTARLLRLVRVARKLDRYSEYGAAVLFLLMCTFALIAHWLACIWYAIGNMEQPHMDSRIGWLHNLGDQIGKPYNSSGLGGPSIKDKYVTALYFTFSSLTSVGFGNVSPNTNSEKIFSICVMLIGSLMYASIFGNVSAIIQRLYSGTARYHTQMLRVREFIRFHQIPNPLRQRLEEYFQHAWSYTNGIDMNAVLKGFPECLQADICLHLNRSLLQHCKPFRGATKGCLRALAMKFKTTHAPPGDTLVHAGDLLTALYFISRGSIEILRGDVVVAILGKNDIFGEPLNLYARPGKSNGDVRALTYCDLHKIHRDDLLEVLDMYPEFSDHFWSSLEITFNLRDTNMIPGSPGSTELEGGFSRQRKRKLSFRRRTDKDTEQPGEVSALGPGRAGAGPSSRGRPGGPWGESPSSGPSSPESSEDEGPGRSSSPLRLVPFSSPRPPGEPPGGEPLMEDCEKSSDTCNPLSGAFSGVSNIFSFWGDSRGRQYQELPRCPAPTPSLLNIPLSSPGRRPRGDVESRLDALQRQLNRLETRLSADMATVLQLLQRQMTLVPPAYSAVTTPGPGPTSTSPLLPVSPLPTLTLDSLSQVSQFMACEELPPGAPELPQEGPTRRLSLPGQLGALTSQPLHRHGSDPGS
# Method: Inhibition of human ERG at […] by Rb efflux assay

# count of solved cases: 2
* O=C(Nc1ccc2[nH]nc(-c3ccncc3)c2c1)[C@@H]1CCN(CC(=O)N2CCN(c3ccc(-c4ncccn4)cc3)CC2)C1 | 12%
* CS[C@@]1(C(=O)Nc2ccc3[nH]nc(-c4ccc(F)cc4)c3c2)CCN(CC(=O)N2CC=C(c3ccc(-c4ncccn4)cc3)CC2)C1 | 8%

Let's switch to this compound now.
# input Would you mind telling me what inhibition at […] value was observed for CO[C@@]1(C(=O)Nc2ccc3[nH]nc(-c4ccc(F)cc4)c3c2)CCN(CC(=O)N2CC=C(c3ccc(-c4ncccn4)cc3)CC2)C1 ?
# output 56%

* * *

# Method: AUC in rat at 10 mg/kg
# Type: ADME, organism-based
# Test conditions: in vivo
Observation type: AUC (µM·h)
Return type: number; implicit unit µM·h.

# input Would you mind telling me what AUC value was observed for CO[C@@]1(C(=O)Nc2ccc3[nH]nc(-c4ccc(F)cc4)c3c2)CCN(CC(=O)N2CC=C(c3ccc(-c4ncccn4)cc3)CC2)C1 ?
# output 1.88

* * *

Each record here notes measured IC50.
# System tested: Cytochrome P450 3A4 (Homo sapiens, UniProt P08684)
# Sequence (P08684 whole entry): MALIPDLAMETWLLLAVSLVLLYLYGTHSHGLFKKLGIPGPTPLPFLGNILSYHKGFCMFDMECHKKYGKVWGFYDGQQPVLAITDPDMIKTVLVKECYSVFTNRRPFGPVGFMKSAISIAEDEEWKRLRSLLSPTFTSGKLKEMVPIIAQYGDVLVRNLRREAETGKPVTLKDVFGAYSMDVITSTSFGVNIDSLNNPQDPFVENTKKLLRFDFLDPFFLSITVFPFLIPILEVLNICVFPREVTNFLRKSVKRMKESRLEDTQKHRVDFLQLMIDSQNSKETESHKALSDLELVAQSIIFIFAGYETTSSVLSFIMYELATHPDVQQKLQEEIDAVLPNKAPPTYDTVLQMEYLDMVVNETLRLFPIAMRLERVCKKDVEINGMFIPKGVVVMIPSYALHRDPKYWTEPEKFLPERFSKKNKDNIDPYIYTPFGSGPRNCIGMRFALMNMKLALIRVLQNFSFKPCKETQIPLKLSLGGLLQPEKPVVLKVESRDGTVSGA
# Method: Inhibition of CYP3A4 (unknown origin) under pre-incubation condition
# Assay type: ADME
Return type: number; implicit unit nM.

# input For Cytochrome P450 3A4 (Homo sapiens, UniProt P08684), provide IC50 of CO[C@@]1(C(=O)Nc2ccc3[nH]nc(-c4ccc(F)cc4)c3c2)CCN(CC(=O)N2CC=C(c3ccc(-c4ncccn4)cc3)CC2)C1 please.
# output 2200

# input Lookup O=C(Nc1ccc2[nH]nc(-c3ccncc3)c2c1)[C@@H]1CCN(CC(=O)N2CCN(c3ccc(-c4ncccn4)cc3)CC2)C1
# output 5700

# input Lookup CS[C@@]1(C(=O)Nc2ccc3[nH]nc(-c4ccc(F)cc4)c3c2)CCN(CC(=O)N2CC=C(c3ccc(-c4ncccn4)cc3)CC2)C1
# output 2000

* * *

Each record here notes measured pIC50.
# System tested: Mitogen-activated protein kinase 1 (Homo sapiens, UniProt P28482)
# Sequence (P28482 whole entry): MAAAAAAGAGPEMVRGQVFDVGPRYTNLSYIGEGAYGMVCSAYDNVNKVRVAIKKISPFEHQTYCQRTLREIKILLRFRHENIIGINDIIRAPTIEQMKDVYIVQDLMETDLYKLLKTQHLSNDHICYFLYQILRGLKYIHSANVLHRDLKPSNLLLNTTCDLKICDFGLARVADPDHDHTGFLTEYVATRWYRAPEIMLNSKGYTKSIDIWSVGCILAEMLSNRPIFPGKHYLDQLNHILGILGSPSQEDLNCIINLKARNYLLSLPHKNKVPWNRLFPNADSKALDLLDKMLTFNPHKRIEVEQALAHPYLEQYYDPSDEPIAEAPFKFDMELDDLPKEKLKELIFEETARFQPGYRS
# Method: Inhibition of ERK2 (unknown origin)
Here pIC50 is given on a logarithmic scale as minus log10 of the concentration in mol/L.

- CS[C@@]1(C(=O)Nc2ccc3[nH]nc(-c4ccc(F)cc4)c3c2)CCN(CC(=O)N2CCN(c3ccc(-c4ncccn4)cc3)CC2)C1: 8.25
- O=C(Nc1ccc2[nH]nc(-c3ccc(F)cc3)c2c1)[C@@H]1CCN(CC(=O)N2CC=C(c3ccc(-c4ncccn4)cc3)CC2)C1: 7.81

Let's switch to this molecule now.
# input Would you mind telling me what pIC50 value was observed for CS[C@@]1(C(=O)Nc2ccc3[nH]nc(-c4ccc(F)cc4)c3c2)CCN(CC(=O)N2CC=C(c3ccc(-c4ncccn4)cc3)CC2)C1 ?
# output 8.15

Source of measurements: ChEMBL document CHEMBL4219261
